Documented Activity 8 h across a set of compounds
Tested on: L. reuteri oxidoreductase
measurement.description: Solvent stability: enzyme activity after contact with organic solvents
Assay type: biochemical, Lactobacillus reuteri
experimental.setup: water-miscible solvent mixture or buffer; enzyme 1:400; room temperature; 8 h; starting value 100%
The figure you give is taken to be in %; do not add the unit.

Example entries begin here.
{"compound": "CC(C)O [10% Isopropanol, Isopropanol]", "output.unit": "%", "Activity 8 h": 86}
{"compound": "C[S+](C)[O-] [20% DSMO]", "output.unit": "%", "Activity 8 h": 79}
{"compound": "CC(C)O [20% Isopropanol, Isopropanol]", "output.unit": "%", "Activity 8 h": 100}

Respond only with Activity 8 h recorded for CCO [10% EtOH, EtOH] 68

Respond only with Activity 8 h recorded for CCO [20% EtOH, EtOH] 83

Respond only with Activity 8 h recorded for CC(C)O [5% Isopropanol, Isopropanol] 77

Respond only with Activity 8 h recorded for CCO [5% EtOH, EtOH] 64

Respond only with Activity 8 h recorded for CC(C)O [30% Isopropanol, Isopropanol] 0

Respond only with Activity 8 h recorded for CCO [30% EtOH, EtOH] 77

Respond only with Activity 8 h recorded for C[S+](C)[O-] [10% DSMO] 80

###

Test system: recombinant Lactobacillus reuteri oxidoreductase
measurement.description: Substrate spectrum in standard measurement mixture
Format: biochemical
experimental.setup: reduction with NADPH; activity with ethyl 2-oxo-4-phenylbutyrate set to 100%
Hi all, reminder that labels come from Relative activity %, split as bin 1 (below 0.3%), bin 2 (0.3% to below 4%), bin 3 (4% or more)

{"compound": "CC(C)=O [Acetone]", "cat": "bin 1"}
{"compound": "CCOC(=O)C(=O)CCc1ccccc1 [Ethyl 2-oxo-4-phenyl-butyrate]", "cat": "bin 3"}
{"compound": "CC(=O)Cc1ccccc1 [1-Phenyl-2-propanone]", "cat": "bin 2"}
{"compound": "CCCC(=O)C(=O)OCC [Ethyl 2-oxovalerate]", "cat": "bin 3"}
{"compound": "CCC(=O)C(=O)O [2-oxobutyric acid]", "cat": "bin 1"}

Hey, which category is O=C(O)C(=O)Cc1ccccc1 [2-Oxo-3-phenyl-propionic acid] in, do you know? bin 2

Hey, which category is CCOC(=O)C(C)=O [Ethyl pyruvate] in, do you know? bin 2

Hey, which category is COC(=O)CCCCC(=O)CC(=O)OC [Dimethyl-3-oxo-1,8-octanedioic acid] in, do you know? bin 3

###

Test system: L. reuteri oxidoreductase
measurement.description: Solvent stability: enzyme activity after contact with organic solvents
Assay type: biochemical, Lactobacillus reuteri
experimental.setup: water-immiscible solvent, same volume as buffer; room temperature; 24 h; activity from the aqueous phase
Documented Activity 24 h across a set of molecules
The figure you give is taken to be in %; do not add the unit.

Example entries begin here.
{"molecule": "ClC(Cl)Cl [Chloroform]", "Activity 24 h [%]": 0}
{"molecule": "CCCCOC(C)=O [Butyl acetate]", "Activity 24 h [%]": 12}
{"molecule": "COC(C)(C)C", "Activity 24 h [%]": 81}

Respond only with Activity 24 h recorded for CCOCC 20

Respond only with Activity 24 h recorded for CCOC(C)=O [Ethyl acetate] 0

Respond only with Activity 24 h recorded for CCCCCCC 100

Respond only with Activity 24 h recorded for C1CCCCC1 100

Respond only with Activity 24 h recorded for CCCCCC 100

Respond only with Activity 24 h recorded for CC(C)OC(C)C 77
